molecular target: HLA-A*02:01 (Homo sapiens, UniProt P04439, D140Y/D185E/D98H/E176V/E277Q/G131W/G231S/I119V/I121R/I166T/I218V/L300P/L318F/N151K/N90K/P208A/P217A/Q86G/Q94H/R138H/R169H/T345S); test: MHC binding assay (UV-ligand exchange, ELISA, peptide exchange yield); conditions: binding of HLA-class I restricted peptides to HLA-A*02:01
metric: Peptide exchange (MHC class I binding score, peptide exchange yield)

substance	measured.result
456 (LLIGHLERV; listed as Homo sapiens) [compound 456]	″+++″ (≥50% = +++)
277 (LLPPLESLATV; listed as Homo sapiens) [compound 277]	″++″ (≥20% = ++)
441 (ALLENPKMEL; listed as Homo sapiens) [compound 441]	″+++″ (≥50% = +++)
6 (VLVSDGVHSV; listed as Homo sapiens) [compound 6]	″+++″ (≥50% = +++)
190 (FLSSLTETI; listed as Homo sapiens) [compound 190]	″+++″ (≥50% = +++)

Which Peptide exchange (MHC class I binding score, peptide exchange yield) is listed for 539 (ALFDAQAQV; listed as Homo sapiens) [compound 539] ?
″+++″ (≥50% = +++)

Please give the measured Peptide exchange (MHC class I binding score, peptide exchange yield) for this substance: 94 (YLIDIKTIAI; listed as Homo sapiens) [compound 94]
″++″ (≥20% = ++)

Item 573 (ILVANAIVGV; listed as Homo sapiens) [compound 573] has what recorded Peptide exchange (MHC class I binding score, peptide exchange yield)?
″+++″ (≥50% = +++)

Form field: reported Peptide exchange (MHC class I binding score, peptide exchange yield) of 99 (ALVSKGLATV; listed as Homo sapiens) [compound 99]
″++″ (≥20% = ++)

Would you mind telling me what Peptide exchange (MHC class I binding score, peptide exchange yield) value was observed for 74 (ALLDPEVLSIFV; listed as Homo sapiens) [compound 74] ?
″+++″ (≥50% = +++)

Field request: Peptide exchange (MHC class I binding score, peptide exchange yield) | item: 335 (YSLSSVVTV; listed as Homo sapiens) [compound 335]
″+++″ (≥50% = +++)

Entry 366 (RLLDMGETDLML; listed as Homo sapiens) [compound 366] : reported Peptide exchange (MHC class I binding score, peptide exchange yield) = ?
″+++″ (≥50% = +++)

Given 593 (GLPRFGIEMV; listed as Homo sapiens) [compound 593] , state its recorded Peptide exchange (MHC class I binding score, peptide exchange yield).
″+++″ (≥50% = +++)

Param item = 182 (MLLEAPGIFL; listed as Homo sapiens) [compound 182] ; retrieve measured Peptide exchange (MHC class I binding score, peptide exchange yield).
″+++″ (≥50% = +++)

Entry under review: 183 (FGLDLVTEL; listed as Homo sapiens) [compound 183] . Reported Peptide exchange (MHC class I binding score, peptide exchange yield)?
″+++″ (≥50% = +++)

---

biological target: HLA-A*02:01 (Homo sapiens, UniProt P04439, D140Y/D185E/D98H/E176V/E277Q/G131W/G231S/I119V/I121R/I166T/I218V/L300P/L318F/N151K/N90K/P208A/P217A/Q86G/Q94H/R138H/R169H/T345S); test: MHC binding assay (UV-ligand exchange, ELISA, peptide exchange yield); conditions: binding of HLA-class I restricted peptides to HLA-A*02:01
metric: Peptide exchange (MHC class I binding score, peptide exchange yield)

substance	measured.result
131 (FVPPVTVFPSL; listed as Homo sapiens) [compound 131]	″++″ (≥20% = ++)
234 (ALMEDTGRQML; listed as Homo sapiens) [compound 234]	″++″ (≥20% = ++)
428 (KLGHTDILVGV; listed as Homo sapiens) [compound 428]	″++″ (≥20% = ++)
